meta.source: PubChem BioAssay

assay: PSAC antagonists in infected red cells, primary screen, cell-based, P. falciparum Indochina, OD700, 2 h (AID 1155);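 further: lysis reports solute entry through the parasite surface anion channel PSAC; channel blockers reduce lysis of infected cells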; conditions: P. falciparum Indochina infected erythrocytes, osmotic lysis OD700; higher = more signal, called active from +8 up or from −8 down
I would appreciate it if you labelled entries rule met when z-score is 0.8 or higher, otherwise rule not met.

compound | category
CCCCCCCCCCC(O)C1C=CC2C(=O)N(c3ccccc3)C(=O)C2N1Nc1ccccc1F (centres undefined) | rule met
[N-]=[N+]=NC[C@H](Cc1ccccc1)NC(=O)c1ccccc1 | rule met
O=C(NCCN1CCOCC1)[C@@H]1c2ccccc2C(=O)N(Cc2ccccc2)[C@H]1c1ccc(CO)cc1 | rule not met
Cc1c(NC(=O)/C(C#N)=C/c2ccccc2Cl)c(=O)n(-c2ccccc2)n1C | rule not met
CCOC(=O)C[C@H]1[C@H](OC(=O)c2ccc(C(=O)c3ccccc3)cc2)[C@@H](NC(=O)CC(C)C)c2cc(OCCCO)ccc2N1C(=O)Cc1ccc(OC)cc1 | rule not met
COC(=O)[C@@]1(Cc2ccc(F)cc2)[C@H]2c3cc(C(=O)N4CCCC4)n(CC4CC4)c3C[C@H]2CN1C(=O)c1ccccc1 | rule not met
C=C(COC)/C(=C/C[C@H](OC(C)=O)c1cccc(OCCO)c1)c1cnc2ccccc2c1 | rule met
Cc1cccc([C@H]2C[C@H]3C(Br)=C[C@@H]2C(=O)[C@]32CO2)c1 | rule not met
COC(=O)[C@@]1(Cc2ccccc2CN=[N+]=[N-])N=C(c2ccc(OCCCO)cc2)O[C@H]1c1ccccc1CN=[N+]=[N-] | rule met
C=CCNC(=O)[C@H]1[C@@H]2C(=O)O[C@@H](c3ccccc3)[C@@H](c3ccccc3)N2[C@@H](c2ccc(O)cc2)[C@]12C(=O)N(C(=O)OCCOC)c1ccc(C#CCC(C(=O)OC)C(=O)OC)cc12 | rule met
CCCCC=C[C@@H](NC(=O)c1ccccc1)c1ccccc1 | rule not met
O=C1C2C=CC(C(O)c3ccco3)N(Nc3ccccc3)C2C(=O)N1c1ccccc1 (centres undefined) | rule not met
CN1C(=O)C2C(C1=O)C1C=C(CCCO)C2C(C2CC2)N1Cc1cc2c(cc1Br)OCO2 (centres undefined) | rule not met
